- Test Target: JAK2 (Homo sapiens)
- Construct: made in house; host or cells: SF9 insect cells (baculovirus)
- Sequence (O60674 812-1132): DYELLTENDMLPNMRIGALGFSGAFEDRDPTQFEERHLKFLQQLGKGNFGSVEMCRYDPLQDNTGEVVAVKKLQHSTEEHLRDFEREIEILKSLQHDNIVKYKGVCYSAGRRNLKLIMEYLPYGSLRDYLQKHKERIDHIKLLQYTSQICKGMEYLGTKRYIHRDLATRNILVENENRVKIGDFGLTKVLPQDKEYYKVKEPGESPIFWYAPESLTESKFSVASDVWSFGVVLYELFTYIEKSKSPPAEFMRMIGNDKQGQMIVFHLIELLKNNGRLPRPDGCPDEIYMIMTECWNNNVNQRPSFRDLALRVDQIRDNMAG
- Assay Summary: JAK2 inhibition (Table 4)
- Format: biochemical
- Experimental Conditions: read-out: JAK2 Ki
Reported Metric: Ki (µM)

Guide cases for Ki, answers given:
Compound | Unit Of Measure | Reported Measurement
O=C(NCCc1nc2cnc3[nH]ccc3c2n1[C@H]1CCCOC1)C1CC1 | µM | 0.213
CC(C)CNC(=O)Cc1nc2cnc3[nH]ccc3c2n1C1CCCOC1 (racemic) | µM | 0.256
C[C@@H](O)c1nc2cnc3[nH]ccc3c2n1C1CCN(C2(CC#N)COC2)CC1 | µM | 0.205

A: O=C(Cc1nc2cnc3[nH]ccc3c2n1C1CCCOC1)NCC(F)F (racemic)
B: N#Cc1nc2cnc3[nH]ccc3c2n1C1CCN(Cc2cccnc2)CC1
INPUT: Lower value for measured Ki? Options: A , B Your choice should be expressed through its label.
OUTPUT: B
